Target: IL-23R (Homo sapiens, UniProt Q5VWK5);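 note: cryopreserved PBMCs stimulated at 37 °C in 5% CO2, then lysed, with phosphorylated STAT3 quantified in lysates using a phospho-STAT panel kit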
Sequence (Q5VWK5 24-629): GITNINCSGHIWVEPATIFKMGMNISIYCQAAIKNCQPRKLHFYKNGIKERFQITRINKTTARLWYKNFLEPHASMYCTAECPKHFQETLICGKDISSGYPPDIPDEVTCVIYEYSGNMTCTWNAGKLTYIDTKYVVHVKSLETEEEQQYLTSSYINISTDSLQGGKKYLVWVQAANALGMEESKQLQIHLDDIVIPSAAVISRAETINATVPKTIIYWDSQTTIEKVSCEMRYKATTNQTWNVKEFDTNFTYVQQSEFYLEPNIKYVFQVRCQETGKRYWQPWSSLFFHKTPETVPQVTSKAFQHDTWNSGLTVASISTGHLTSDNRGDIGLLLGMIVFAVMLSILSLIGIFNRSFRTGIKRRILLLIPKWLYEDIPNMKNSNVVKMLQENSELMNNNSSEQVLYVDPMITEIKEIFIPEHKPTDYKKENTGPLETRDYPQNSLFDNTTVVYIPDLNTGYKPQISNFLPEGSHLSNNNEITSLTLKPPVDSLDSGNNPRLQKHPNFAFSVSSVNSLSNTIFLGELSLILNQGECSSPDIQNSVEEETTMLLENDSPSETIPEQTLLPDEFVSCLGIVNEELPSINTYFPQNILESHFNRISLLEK
Test: cell-based
Conditions: PBMC pSTAT3 IC50 (nM), PBMCs from healthy donors, IL-23 5 ng/mL, 30 minutes, phosphorylated STAT3
Positions of bridges follow the written chain, without caps; N, C: chain ends. Non-standard residues stand in square brackets, D forms with d. Residues, ends and D or L forms follow the SMILES beside them. *: point of attachment. 2Nal = N[C@@H](Cc1ccc2ccccc2c1)C(=O)O; AEF = NCCOc1ccc(C[C@H](N)C(=O)O)cc1; Pen = CC(C)(S)[C@H](N)C(=O)O; Thp = NC1(C(=O)O)CCOCC1; Propionyl = CCC(=O)*
property.measured: IC50
Remember to quote the unit after the number.

Worked cases, answers included:
1) CC(=O)NCCCC[C@@H]1NC(=O)[C@H](Cc2c[nH]c3c(C)cccc23)NC(=O)[C@H]([C@@H](C)O)NC(=O)[C@H](CC(N)=O)NC(=O)[C@@H](NC(C)=O)CSSC[C@@](C)(C(=O)N[C@@H](Cc2ccc(OCCN)cc2)C(=O)N[C@@H](Cc2ccc3ccccc3c2)C(=O)N[C@@](C)(CCCCN)C(=O)N[C@@H](CCCCNC(C)=O)C(=O)N[C@@H](CC(N)=O)C(=O)NC2(C(N)=O)CCOCC2)NC1=O    7.1 nM
2) CC(=O)NCCCC[C@@H]1NC(=O)[C@H](Cc2c[nH]c3c(C)cccc23)NC(=O)[C@H]([C@@H](C)O)NC(=O)[C@H](CC(N)=O)NC(=O)[C@@H](NC(C)=O)C(C)(C)SSC(C)(C)[C@@H](C(=O)N[C@@H](Cc2ccc(OCCN)cc2)C(=O)N[C@@H](Cc2ccc3ccccc3c2)C(=O)N[C@@](C)(CCCCN)C(=O)N[C@@H](CCCCNC(C)=O)C(=O)N[C@@H](CC(N)=O)C(=O)N[C@@](C)(Cc2ccccc2)C(=O)N[C@H](Cc2ccc(N)cc2)C(N)=O)NC1=O    12 nM
3) CC(=O)NCCCC[C@@H]1NC(=O)[C@H](Cc2c[nH]c3ccccc23)NC(=O)[C@H]([C@@H](C)O)NC(=O)[C@H](CC(N)=O)NC(=O)[C@@H](NC(=O)[C@@H](CCCNC(=N)N)NC(C)=O)C(C)(C)SSC(C)(C)[C@@H](C(=O)N[C@@H](Cc2ccc(OCCN)cc2)C(=O)N[C@@H](Cc2ccc3ccccc3c2)C(=O)NC2(C(=O)N[C@@H](CCC(=O)O)C(=O)N[C@@H](CC(N)=O)C(=O)NC3(C(N)=O)CCOCC3)CCOCC2)NC1=O [Compound 105] (Ac-[dR][Pen]NTWK(Ac)[Pen][AEF][2Nal][Thp]EN[Thp]-NH2; disulfide 2-7)    2.2 nM
4) CCC(=O)NCCCC[C@H](NC(=O)C1(NC(=O)[C@H](Cc2ccc3ccccc3c2)NC(=O)[C@H](Cc2ccc(OCCN)cc2)NC(=O)[C@H]2NC(=O)[C@H](CCC(N)=O)NC(=O)[C@H](Cc3c[nH]c4ccccc34)NC(=O)[C@H]([C@@H](C)O)NC(=O)[C@H](CCC(N)=O)NC(=O)[C@@H](NC(=O)[C@@H](CCCNC(=N)N)NC(C)=O)C(C)(C)SSC2(C)C)CCOCC1)C(=O)N[C@@H](CC(N)=O)C(=O)N[C@@H](Cc1ccccc1)C(N)=O [Compound 54] (Ac-[dR][Pen]QTWQ[Pen][AEF][2Nal][Thp]K(Propionyl)NF-NH2; disulfide 2-7)    47 nM

Let us move to another entry and its IC50.
Q) Please indicate IC50 recorded for CC(=O)NCCCC[C@@H]1NC(=O)[C@H](Cc2c[nH]c3c(C)cccc23)NC(=O)[C@H]([C@@H](C)O)NC(=O)[C@H](CC(N)=O)NC(=O)[C@@H](NC(C)=O)C(C)(C)SSC(C)(C)[C@@H](C(=O)N[C@@H](Cc2ccc(OCCN)cc2)C(=O)N[C@@H](Cc2ccc3ccccc3c2)C(=O)NC2(C(=O)N[C@@H](CCCCNC(=O)C(F)(F)F)C(=O)N[C@@H](CC(N)=O)C(=O)N[C@@](C)(Cc3ccccc3)C(N)=O)CCOCC2)NC1=O
A) 7.6 nM
